Data provenance is ChEMBL document CHEMBL1132563.

target: Caspase-1 (Homo sapiens) (UniProt P29466); assay: Inhibitory activity against human IL-1 beta converting enzyme from monocytic THP-1 cell line, activity expressed as the logarithm of the second order rate constant for inactivation; format: cell-based
Sequence (P29466 120-297 limits assumed): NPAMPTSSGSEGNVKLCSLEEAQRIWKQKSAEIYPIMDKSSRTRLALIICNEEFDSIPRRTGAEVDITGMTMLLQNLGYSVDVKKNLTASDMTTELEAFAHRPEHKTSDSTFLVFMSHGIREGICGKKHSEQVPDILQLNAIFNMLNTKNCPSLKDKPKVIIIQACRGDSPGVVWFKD
Sequence (P29466 317-404 limits assumed): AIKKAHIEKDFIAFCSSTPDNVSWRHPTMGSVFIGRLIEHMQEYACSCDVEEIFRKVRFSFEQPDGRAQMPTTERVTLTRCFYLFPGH
Labelling: Activity reported below 5 becomes Condition met; at or above becomes Condition not met.

Sample answers from the record:
{"Compound": "CC(C)[C@H](NC(=O)OCc1ccccc1)C(=O)N[C@@H](C)C(=O)N[C@@H](CC(=O)O)C(=O)COc1cc(C(F)(F)F)nn1-c1ccccc1", "Cat": "Condition not met"}
{"Compound": "CC(=O)N[C@@H](Cc1ccc(O)cc1)C(=O)N[C@H](C(=O)N[C@@H](C)C(=O)N[C@@H](CC(=O)O)C(=O)COC(=O)c1c(C(F)(F)F)cccc1C(F)(F)F)C(C)C", "Cat": "Condition not met"}
{"Compound": "CC(C)[C@H](NC(=O)CCc1ccccc1)C(=O)N[C@@H](C)C(=O)N[C@@H](CC(=O)O)C(=O)COC(=O)c1ccc([N+](=O)[O-])cc1", "Cat": "Condition not met"}

Asked: Could you please tell me whether Activity recorded for O=C(O)CC(NC(=O)Cn1c(-c2ccc(F)cc2)ncc(NC(=O)NCc2ccccc2)c1=O)C(=O)COC(=O)c1c(Cl)cccc1Cl (configuration not stated) is less than 5?
Given back: Condition not met

Asked: Could you please tell me whether Activity recorded for "C[C@H](NC(=O)[C@H](Cc1ccccc1)NC(=O)OCc1ccccc1)C(=O)COC(=O)c1c(Cl)cccc1Cl" is less than 5?
Given back: Condition met

Asked: Could you please tell me whether Activity recorded for CC(C)[C@H](NC(=O)OCc1ccccc1)C(=O)N1CCCCC1C(=O)N[C@H](CC(=O)O)C(=O)COc1cc(C(F)(F)F)nn1-c1ccccc1 (some centres not stated) is less than 5?
Given back: Condition not met

Asked: Could you please tell me whether Activity recorded for "CC(C)[C@H](NC(=O)OCc1ccccc1)C(=O)N(C)[C@@H](C)C(=O)N[C@@H](CC(=O)O)C(=O)COc1cc(C(F)(F)F)nn1-c1ccccc1" is less than 5?
Given back: Condition not met

Asked: Could you please tell me whether Activity recorded for "C=CCOC(=O)N[C@@H](CC(=O)O)C(=O)COC(=O)c1c(C)cccc1C" is less than 5?
Given back: Condition met

Asked: Could you please tell me whether Activity recorded for "CC(C)[C@H](NC(=O)OCc1ccccc1)C(=O)N[C@@H](CC(=O)O)C(=O)COP(=O)(Oc1ccccc1)Oc1ccccc1" is less than 5?
Given back: Condition met

Asked: Could you please tell me whether Activity recorded for "C[C@H](NC(=O)[C@H](Cc1ccccc1)NC(=O)OCc1ccccc1)C(=O)COP(=O)(Oc1ccccc1)Oc1ccccc1" is less than 5?
Given back: Condition met

Asked: Could you please tell me whether Activity recorded for "CC(C)[C@H](NC(=O)CCc1ccccc1)C(=O)N[C@@H](C)C(=O)N[C@@H](CC(=O)O)C(=O)COC(=O)c1ccccc1" is less than 5?
Given back: Condition not met
